B1: Retinoic acid receptor beta, residues 85 to 161; numbered along this chain, P10826 (parent)
chain: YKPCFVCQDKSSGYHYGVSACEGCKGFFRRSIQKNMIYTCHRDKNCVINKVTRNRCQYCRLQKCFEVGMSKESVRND

Variants of: B1
Test: abundance fitness (aPCA) (normalised: wild type 0, dead -1); higher = more abundant; growth selection in yeast, the domain comes from the species named
Conditions: Homo sapiens
Rule: abundance fitness of -0.1 or more gives fulfilled; anything lower gives not fulfilled.

Observe how each entry below is paired with its result.
YKPCFVCQDKSSGYHYGVSACEGCKGFFRRSIQKNMIYTFHRDKNCVINKVTRNRCQYCRLQKCFEVGMSKESVRND [C40F] : not fulfilled
YKPLFVCQDKSSGYHYGVSACEGCKGFFRRSIQKNMIYTCHRDKNCVINKVTRNRCQYCRLQKCFEVGMSKESVRND [C4L] : not fulfilled
YKPCFVCQDKSSGYHYGVSACEGCNGFFRRSIQKNMIYTCHRDKNCVINKVTRNRCQYCRLQKCFEVGMSKESVRND [K25N] : fulfilled
YKPCFVCQDKSSGYHYGVSACEGCKGFFRRSIQKNMIYTCHRDKNCIINKVTRNRCQYCRLQKCFEVGMSKESVRND [V47I] : fulfilled
YKPCFVCQDKSSGYHYGVSACEGCKGFIRRSIQKNMIYTCHRDKNCVINKVTRNRCQYCRLQKCFEVGMSKESVRND [F28I] : not fulfilled

Say whether YKPCFVCQDKSSGYHYGVSACEGCKGFFSRSIQKNMIYTCHRDKNCVINKVTRNRCQYCRLQKCFEVGMSKESVRND [R29S] shows abundance fitness of -0.1 or more.
fulfilled

Say whether YKPCFVCQDKSYGYHYGVSACEGCKGFFRRSIQKNMIYTCHRDKNCVINKVTRNRCQYCRLQKCFEVGMSKESVRND [S12Y] shows abundance fitness of -0.1 or more.
not fulfilled

Say whether YKPCFVCQDKSSGYHYGVSACEGCKGFFRRSIQKNMIYTCHRDKNCVINKVTRNVCQYCRLQKCFEVGMSKESVRND [R55V] shows abundance fitness of -0.1 or more.
fulfilled

Say whether YKPCFVCQDKSSGYHYGVSAWEGCKGFFRRSIQKNMIYTCHRDKNCVINKVTRNRCQYCRLQKCFEVGMSKESVRND [C21W] shows abundance fitness of -0.1 or more.
not fulfilled

Say whether YKPCFVCQDKSSGYHYGVSACEGTKGFFRRSIQKNMIYTCHRDKNCVINKVTRNRCQYCRLQKCFEVGMSKESVRND [C24T] shows abundance fitness of -0.1 or more.
not fulfilled

Say whether YKPCFVCQDKSSGYHYGVSACEGCKGFFRRSIQFNMIYTCHRDKNCVINKVTRNRCQYCRLQKCFEVGMSKESVRND [K34F] shows abundance fitness of -0.1 or more.
fulfilled

Say whether YKPCFVCQDKSSGYHYGVSACEGCKGFFRRSIQKMMIYTCHRDKNCVINKVTRNRCQYCRLQKCFEVGMSKESVRND [N35M] shows abundance fitness of -0.1 or more.
not fulfilled

Say whether YKPCFVCQDKSSGYHYGVSKCEGCKGFFRRSIQKNMIYTCHRDKNCVINKVTRNRCQYCRLQKCFEVGMSKESVRND [A20K] shows abundance fitness of -0.1 or more.
not fulfilled
